# Test system: Mycobacteroides chelonae
# PROTOCOL SUMMARY: Antimicrobial activity against Mycobacterium chelonae ATCC 35752 harboring pZS01 carrying mspA gene by resazurine microtiter assay
# Format: functional
# CONDITION: ATCC 35752, Urine
Assign MIC to each entry below.
Respond numerically; units are µg/mL and should not be typed.

Specify measured MIC for O=C(N[C@H](CO)[C@H](O)c1ccc([N+](=O)[O-])cc1)C(Cl)Cl [CHLORAMPHENICOL] . 50

Return the recorded MIC value; entry: CCc1cc(C(N)=S)ccn1 [ETHIONAMIDE] 50

Report measured MIC; entry is CC[C@@H](CO)NCCN[C@@H](CC)CO [ETHAMBUTOL] 25

Answer with reported MIC of CN(C)[C@@H]1C(O)=C(C(N)=O)C(=O)[C@@]2(O)C(O)=C3C(=O)c4c(O)cccc4[C@@](C)(O)[C@H]3C[C@@H]12 [TETRACYCLINE] 5

Answer with the recorded MIC for the compound listed here: CC[C@H]1OC(=O)[C@H](C)[C@@H](O[C@H]2C[C@@](C)(OC)[C@@H](O)[C@H](C)O2)[C@H](C)[C@@H](O[C@@H]2O[C@H](C)C[C@H](N(C)C)[C@H]2O)[C@](C)(O)C[C@@H](C)CN(C)[C@H](C)[C@@H](O)[C@]1(C)O [AZITHROMYCIN] 500

Read the entry CN[C@H](CC(C)C)C(=O)N[C@H]1C(=O)N[C@@H](CC(N)=O)C(=O)N[C@H]2C(=O)N[C@H]3C(=O)N[C@H](C(=O)N[C@H](C(=O)O)c4cc(O)cc(O)c4-c4cc3ccc4O)[C@H](O)c3ccc(c(Cl)c3)Oc3cc2cc(c3O[C@@H]2O[C@H](CO)[C@@H](O)[C@H](O)[C@H]2O[C@H]2C[C@](C)(N)[C@H](O)[C@H](C)O2)Oc2ccc(cc2Cl)[C@H]1O [VANCOMYCIN] and write its reported MIC. 5

Supply recorded MIC for CC(=O)NC[C@H]1CN(c2ccc(N3CCOCC3)c(F)c2)C(=O)O1 [LINEZOLID] here. 5

====

Please provide measured MIC for the entries that follow.
# Tested on: Mycobacteroides chelonae
# PROTOCOL SUMMARY: Antimicrobial activity against Mycobacterium chelonae 9917 by resazurine microtiter assay
# Format: functional
Respond with the bare value in µg/mL.

For the compound CC[C@H]1OC(=O)[C@H](C)[C@@H](O[C@H]2C[C@@](C)(OC)[C@@H](O)[C@H](C)O2)[C@H](C)[C@@H](O[C@@H]2O[C@H](C)C[C@H](N(C)C)[C@H]2O)[C@](C)(O)C[C@@H](C)C(=O)[C@H](C)[C@@H](O)[C@]1(C)O , report MIC. 500

Consider the compound CN[C@@H]1[C@H](O[C@H]2[C@H](O[C@H]3[C@H](O)[C@@H](O)[C@H](N=C(N)N)[C@@H](O)[C@@H]3N=C(N)N)O[C@@H](C)[C@]2(O)C=O)O[C@@H](CO)[C@H](O)[C@H]1O and give its recorded MIC. 10

Return MIC for the following compound: NC[C@H]1O[C@H](O[C@H]2[C@H](O)[C@@H](O[C@H]3O[C@H](CO)[C@@H](O)[C@H](N)[C@H]3O)[C@H](N)C[C@@H]2N)[C@H](N)C[C@@H]1O 25

====

# Tested on: Mycobacteroides chelonae
# PROTOCOL SUMMARY: Antimicrobial activity against Mycobacterium chelonae ATCC 35752 harboring pZS01 carrying mspA gene by resazurine microtiter assay
# Type: functional
# CONDITION: ATCC 35752, Urine
Assign MIC to each entry below.

Give the value of MIC reported for the following: CN[C@@H]1[C@H](O[C@H]2[C@H](O[C@H]3[C@H](O)[C@@H](O)[C@H](N=C(N)N)[C@@H](O)[C@@H]3N=C(N)N)O[C@@H](C)[C@]2(O)C=O)O[C@@H](CO)[C@H](O)[C@H]1O [STREPTOMYCIN] 250 mg/L

Report measured MIC; entry is CC[C@H]1OC(=O)[C@H](C)[C@@H](O[C@H]2C[C@@](C)(OC)[C@@H](O)[C@H](C)O2)[C@H](C)[C@@H](O[C@@H]2O[C@H](C)C[C@H](N(C)C)[C@H]2O)[C@](C)(O)C[C@@H](C)C(=O)[C@H](C)[C@@H](O)[C@]1(C)O [ERYTHROMYCIN] 0.25 mg/L

Provide MIC value for the following compound: CC[C@H]1OC(=O)[C@H](C)[C@@H](O[C@H]2C[C@@](C)(OC)[C@@H](O)[C@H](C)O2)[C@H](C)[C@@H](O[C@@H]2O[C@H](C)C[C@H](N(C)C)[C@H]2O)[C@](C)(OC)C[C@@H](C)C(=O)[C@H](C)[C@@H](O)[C@]1(C)O [CLARITHROMYCIN] 50 mg/L

Consider the compound O=C(O)c1cn(C2CC2)c2cc(N3CCNCC3)c(F)cc2c1=O [CIPROFLOXACIN] . State its measured MIC. 2.5 mg/L

Please give the documented MIC of CO[C@H]1/C=C/O[C@@]2(C)Oc3c(C)c(O)c4c(O)c(c(/C=N/N5CCN(C)CC5)c(O)c4c3C2=O)NC(=O)/C(C)=C\C=C\[C@H](C)[C@H](O)[C@@H](C)[C@@H](O)[C@@H](C)[C@H](OC(C)=O)[C@@H]1C [RIFAMPIN] 5 mg/L

====

Provide the recorded MIC for the entries that follow.
# System: Mycobacteroides chelonae
# PROTOCOL SUMMARY: Antimicrobial activity against Mycobacterium chelonae 9917 by resazurine microtiter assay
# Format: functional

Hello, please tell me recorded MIC for this one: CO[C@H]1/C=C/O[C@@]2(C)Oc3c(C)c(O)c4c(O)c(c(/C=N/N5CCN(C)CC5)c(O)c4c3C2=O)NC(=O)/C(C)=C\C=C\[C@H](C)[C@H](O)[C@@H](C)[C@@H](O)[C@@H](C)[C@H](OC(C)=O)[C@@H]1C [RIFAMPIN] > 500 µg/mL

For the compound CN(C)[C@@H]1C(O)=C(C(N)=O)C(=O)[C@@]2(O)C(O)=C3C(=O)c4c(O)cccc4[C@@](C)(O)[C@H]3C[C@@H]12 [TETRACYCLINE] , give its reported MIC. > 500 µg/mL

Output MIC of NC(=O)c1cnccn1 [PYRAZINAMIDE] > 500 µg/mL

Return reported MIC. Input compound: NNC(=O)c1ccncc1 [ISONIAZID] > 400 µg/mL

Provide MIC value for the following compound: CC[C@@H](CO)NCCN[C@@H](CC)CO [ETHAMBUTOL] > 500 µg/mL

Retrieve MIC measured for CC[C@H]1OC(=O)[C@H](C)[C@@H](O[C@H]2C[C@@](C)(OC)[C@@H](O)[C@H](C)O2)[C@H](C)[C@@H](O[C@@H]2O[C@H](C)C[C@H](N(C)C)[C@H]2O)[C@](C)(OC)C[C@@H](C)C(=O)[C@H](C)[C@@H](O)[C@]1(C)O [CLARITHROMYCIN] and print it. > 250 µg/mL

Provide measured MIC value, entry: CN[C@@H]1C[C@H](N)[C@@H](O)[C@H](O[C@H]2O[C@H](CO)[C@H](O)[C@@H]3O[C@@]4(O[C@@H]23)O[C@H]([C@H](N)CO)[C@H](O)[C@H](O)[C@H]4O)[C@H]1O [HYGROMYCIN] > 500 µg/mL

====

# System: Mycobacteroides chelonae
# PROTOCOL SUMMARY: Antimicrobial activity against Mycobacterium chelonae 9917 by resazurine microtiter assay
# Format: functional
METRIC: MIC

Dear colleague, please send me the reported MIC for CN[C@H](CC(C)C)C(=O)N[C@H]1C(=O)N[C@@H](CC(N)=O)C(=O)N[C@H]2C(=O)N[C@H]3C(=O)N[C@H](C(=O)N[C@H](C(=O)O)c4cc(O)cc(O)c4-c4cc3ccc4O)[C@H](O)c3ccc(c(Cl)c3)Oc3cc2cc(c3O[C@@H]2O[C@H](CO)[C@@H](O)[C@H](O)[C@H]2O[C@H]2C[C@](C)(N)[C@H](O)[C@H](C)O2)Oc2ccc(cc2Cl)[C@H]1O when you can. > 500 µg/mL

Find the measured MIC of CCc1cc(C(N)=S)ccn1 [ETHIONAMIDE] and report it. > 400 µg/mL

Could you please provide reported MIC for CC1(C)S[C@@H]2[C@H](NC(=O)[C@H](N)c3ccccc3)C(=O)N2[C@H]1C(=O)O ? Thanks! > 500 µg/mL

Identify measured MIC corresponding to O=C(N[C@H](CO)[C@H](O)c1ccc([N+](=O)[O-])cc1)C(Cl)Cl > 500 µg/mL
